All figures here come from PubChem BioAssay AID2060899.

# pIC50 per entry
system: 565726-208-R1-J5-PDC complex spheroids, growth inhibition; assay: Anticancer human tumor 565726-208-R1-J5-PDC patient-derived pancreatic adenocarcinoma cell line growth inhibition [RAS]; settings: curve of first compound; second compound 0.003 µM;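 further: spheroids exposed to compounds for seven days before readout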
pIC50: −log10 of the molar value.
Value type: pIC50

{"Molecule": "CCN1CCN(Cc2ccc(Nc3ncc(F)c(-c4cc(F)c5nc(C)n(C(C)C)c5c4)n3)nc2)CC1 + CCn1c(-c2cccnc2C(C)OC)c2c3cc(ccc31)N1CCOC(CC(NC(=O)C(C(C)C)N(C)C(=O)C3(F)CCN(C(=O)C#CC(C)(C)N(C)C)CC3)C(=O)N3CCCC(N3)C(=O)OCC(C)(C)C2)C1", "Result value": "< 6.00"}
{"Molecule": "C[C@@H](NC(=O)c1ncnc(N)c1Cl)c1ncc(C(=O)Nc2cc(C(F)(F)F)c(Cl)cn2)s1 + CCn1c(-c2cccnc2C(C)OC)c2c3cc(ccc31)N1CCOC(CC(NC(=O)C(C(C)C)N(C)C(=O)C3(F)CCN(C(=O)C#CC(C)(C)N(C)C)CC3)C(=O)N3CCCC(N3)C(=O)OCC(C)(C)C2)C1", "Result value": "< 5.00"}
{"Molecule": "CC(C)n1nc(-c2ccc3oc(N)nc3c2)c2c(N)ncnc21 + CCn1c(-c2cccnc2C(C)OC)c2c3cc(ccc31)N1CCOC(CC(NC(=O)C(C(C)C)N(C)C(=O)C3(F)CCN(C(=O)C#CC(C)(C)N(C)C)CC3)C(=O)N3CCCC(N3)C(=O)OCC(C)(C)C2)C1", "Result value": 7.57}
{"Molecule": "NC1c2ccccc2OC12CCN(c1cnc3c(N4CCCc5ncccc54)n[nH]c3n1)CC2 (centres undefined) + CCn1c(-c2cccnc2C(C)OC)c2c3cc(ccc31)N1CCOC(CC(NC(=O)C(C(C)C)N(C)C(=O)C3(F)CCN(C(=O)C#CC(C)(C)N(C)C)CC3)C(=O)N3CCCC(N3)C(=O)OCC(C)(C)C2)C1", "Result value": "< 5.00"}
